# System: Perkinsus marinus PRA240
# procedureDetails: ATP content (proliferation) relative to DMSO control; higher = more parasite growth (less inhibition)
# assayContext: 20 µM; 4 days
For each of the compounds below, state its ATP content.
The reply should contain only the number, in %.

Name the reported ATP content value associated with the compound `O=C(Nc1ccc(Cl)c(Cl)c1)Nc1ccc(Cl)c(Cl)c1` 91.6

`CC(=O)c1ccc(NC(=O)CSc2nc(-c3ccccc3Cl)ns2)cc1` ? 125

`C=CCc1c(C)nc2ccccc2c1O` ? 48

`O=C(Nc1nc(-c2ccccn2)cs1)c1ccccc1Br` ? 8.72

`O=C(c1ccccc1F)N(Cc1ccc(Cl)cc1)c1ccccn1` ? 59

`CCCCCCc1cc2cc(-c3csc(C=Cc4ccccc4)n3)c(=O)oc2cc1O` ? 137

`CCOc1ccc(Nc2c3ccccc3nc3ccccc23)cc1` ? 159

`O=C(Nc1ccc(C23CC4CC(CC(c5ccccc5)(C4)C2)C3)cc1)c1cccs1` ? 68.7

`O=C(Nc1cccc(C2=NCCN2)c1)Nc1cccc(C2=NCCN2)c1` ? 128

`CCn1nc(-c2ccc(C(=O)OC)cc2)nc2c(=O)n(C)c(=O)nc1-2` ? 1.37

COc1ccccc1CNC(=O)C1c2ccccc2C(=O)N(CC(C)C)C1c1cccs1 (configuration not stated) ? 111

`Cc1ccc(-c2nc3ccccc3o2)cc1NCc1cc(Cc2ccccc2)ccc1O` ? 77.3

Cc1sc(NC(=O)c2ccccc2)c(C(c2cccs2)N2CCN(c3ccccc3)CC2)c1C (configuration not stated) ? 97.8

COC(=O)c1ccc(C2C3=C(O)CC(c4ccc(F)cc4)CC3=Nc3ccccc3N2C(=O)c2ccccc2)cc1 (configuration not stated) ? 105

CCCC(c1nnnn1C1CCCCC1)N1CCN(C(=O)c2ccco2)CC1 (configuration not stated) ? 115

CCOc1cc2c(cc1OCC)C(c1cc(Cl)c(O)c(OCC)c1)NCC2 (configuration not stated) ? 97.3

`O=C(CSc1ccc2nnc(-c3cccc(F)c3)n2n1)Nc1ccc2c(c1)OCO2` ? 102

`CC(=O)NCCc1nc2ccccc2n1Cc1ccc(C(C)C)cc1` ? 120

`O=C(NCCCN1CCC(N2CCCCC2)CC1)C1=Cc2cc(Br)ccc2OC1` ? 224

`Cc1ccccc1OCCSc1nc2ccc(NC(=O)c3cccs3)cc2s1` ? 30.1

`CN1CCN(c2nc(Nc3ccc(O)cc3)nc3ccccc23)CC1` ? 114

`COc1cccc(C(=O)Nc2ccc(-c3nc4ccccc4[nH]3)cc2)c1` ? 108
